PROPERTY NAME: melting point

[
  {
    "COMPOUND SMILES": "C=C(C(=O)c1ccc(C(=O)O)cc1)c1c(OC)cc(-c2cccs2)cc1OC",
    "melting point": "> 250 °C"
  },
  {
    "COMPOUND SMILES": "C=C(C(=O)c1ccc(NS(=O)(=O)c2c(C)noc2C)cc1)c1cc(-c2cccs2)ccc1OC",
    "melting point": "176 to 179 °C"
  },
  {
    "COMPOUND SMILES": "C=C(C(=O)c1ccc(C(=O)OC)cc1)c1cc(OC)c(OC)c(-c2cccs2)c1",
    "melting point": "102 to 103 °C"
  }
]

Exercise: Returns the measured melting point for the input compound. Input: C=C(C(=O)c1c(OC)ccc(-c2cccs2)c1OC)c1c(Cl)cccc1Cl
Solution: 152 to 154 °C

Exercise: Recorded melting point for C=C(C(=O)c1c(OC)cccc1OC)c1cc(-c2cccs2)ccc1OC(C)(C)C(=O)O , please?
Solution: 72 to 84 °C

Exercise: Data request, read-out melting point, for C=C(C(=O)c1ccc(Nc2ncccn2)cc1)c1cc(-c2cccs2)ccc1OC
Solution: 154 to 155 °C

Exercise: // query melting point value for entry C=C(C(=O)c1cc(-c2cc3ccccc3s2)c(OC)cc1OC)c1ccc(C(=O)OC)cc1
Solution: 184 to 186 °C

###

Quick reference for melting point among some compounds

Some entries whose results are on file:
[
  {
    "COMPOUND SMILES": "C=C(C(=O)c1cc(-c2cccs2)ccc1OC)c1ccc(C#N)cc1",
    "RESULT": "86 to 88 °C"
  },
  {
    "COMPOUND SMILES": "C=C(C(=O)c1c(OC)cccc1OC)c1cc(-c2cccs2)ccc1OC",
    "RESULT": "162 to 163 °C"
  },
  {
    "COMPOUND SMILES": "C=C(C(=O)c1c(OC)ccc(-c2cccs2)c1OC)c1cccc(OC(C)(C)C(=O)O)c1",
    "RESULT": "79 to 94 °C"
  },
  {
    "COMPOUND SMILES": "C=C(C(=O)c1ccc(Nc2cnccn2)cc1)c1cc(-c2cccs2)ccc1OC",
    "RESULT": "178 to 182 °C"
  },
  {
    "COMPOUND SMILES": "C=C(C(=O)c1c(OC)ccc(-c2cccs2)c1OC)c1ccc(C(F)(F)F)cc1",
    "RESULT": "102 to 105 °C"
  }
]

Exercise: Which melting point reading was recorded for the compound C=C(C(=O)c1ccc(NC(=O)c2ccno2)cc1)c1cc(-c2cccs2)ccc1OC ?
Solution: 132.5 to 133.5 °C

Exercise: Please give the measured melting point for this compound: C=C(C(=O)c1cc(-c2cc3ccccc3s2)c(OC)cc1OC)c1ccc(OC)cc1
Solution: 166 to 168 °C

Exercise: Fill blank: measured melting point of the compound C=C(C(=O)c1c(OC)ccc(-c2cccs2)c1OC)c1ccc([N+](=O)[O-])cc1 is ____.
Solution: 114 to 118 °C

###

PROPERTY NAME: melting point

[
  {
    "COMPOUND": "C=C(C(=O)c1cc(-c2cc3ccccc3s2)c(OC)cc1OC)c1ccc(F)cc1 [Example 47]",
    "melting point": "150 to 152 °C"
  },
  {
    "COMPOUND": "C=C(C(=O)c1ccc(C(=O)NC(CO)(CO)CO)cc1)c1cc(-c2cccs2)ccc1OC [Example 10]",
    "melting point": "144 to 146 °C"
  },
  {
    "COMPOUND": "C=C(C(=O)c1ccc(C(=O)O)cc1)c1ccc(OC)c(-c2cccs2)c1 [Example 1]",
    "melting point": "163 to 164 °C"
  }
]

Turning now to a further compound:
Exercise: Name the reported melting point value associated with the compound C=C(C(=O)c1ccc(C(=O)O)cc1)c1cc(-c2cccnc2)ccc1OC [Example 4]
Solution: 215 °C (dec.)

###

melting point reference

Exercise: Data request, read-out melting point, for C=C(C(=O)c1ccc(F)cc1)c1cc(-c2cc3ccccc3s2)c(OC)cc1OC [Example 51]
Solution: 142 to 144 °C

Exercise: Field request: melting point | item: C=C(C(=O)c1c(OC)ccc(-c2cccs2)c1OC)c1cc(C(C)(C)C)c(O)c(C(C)(C)C)c1 [Example 34]
Solution: 130 to 132.5 °C

Exercise: Quick one: melting point for C=C(C(=O)c1ccc(C(=O)OC)cc1)c1cc(-c2cccs2)ccc1OC [Example 9] ?
Solution: 126 to 128 °C

Exercise: Name the recorded melting point for C=C(C(=O)c1c(C)cccc1C)c1ccc(C(=O)O)cc1-c1cccs1 [Example 33] .
Solution: 186.5 to 188 °C

Exercise: Dear colleague, I am looking for the recorded melting point of the following compound: C=C(C(=O)c1ccc(C(=O)O)cc1)c1cc(-c2cc3ccccc3s2)ccc1OC [Example 5]
Solution: 240 to 242 °C (dec.)

###

Measured melting point of individual entries

[
  {
    "COMPOUND SMILES": "C=C(C(=O)c1ccc(C(F)(F)F)cc1)c1cc(-c2cccs2)ccc1OC",
    "RESULT": "131 to 133 °C"
  },
  {
    "COMPOUND SMILES": "C=C(C(=O)c1c(OC)ccc(-c2cccs2)c1OC)c1ccc(C(=O)O)cc1",
    "RESULT": "193 to 195 °C"
  },
  {
    "COMPOUND SMILES": "C=C(C(=O)c1ccc([N+](=O)[O-])cc1)c1cc(-c2cccs2)ccc1OC",
    "RESULT": "160 to 162 °C"
  },
  {
    "COMPOUND SMILES": "C=C(C(=O)c1c(OC)ccc(-c2cc3ccccc3s2)c1OC)c1cccc(OC(C)(C)C(=O)O)c1",
    "RESULT": "135 to 137 °C"
  },
  {
    "COMPOUND SMILES": "C=C(C(=O)c1c(OC)cccc1OC)c1ccc(C(=O)O)cc1-c1cccs1",
    "RESULT": "192 to 195 °C"
  }
]

Exercise: Which melting point value is on record for C=C(C(=O)c1ccc(NS(C)(=O)=O)cc1)c1cc(-c2cccs2)ccc1OC ?
Solution: 197 to 198 °C

Exercise: Fill in the blank: the reported melting point of C=C(C(=O)c1ccc(Nc2ncccc2C(=O)OCC)cc1)c1cc(-c2cccs2)ccc1OC is ____.
Solution: 149 to 151 °C

Exercise: Fill in: melting point of C=C(C(=O)c1ccc(C(=O)O)cc1)c1cc(-c2cccs2)ccc1OCC(=O)N1CCOCC1 is ___
Solution: 206 to 207 °C

Exercise: Name the recorded melting point for C=C(C(=O)c1cc(OC)c(OC)c(-c2cccs2)c1)c1ccc(C(=O)O)cc1 .
Solution: 159 to 160 °C

Exercise: Reported melting point, molecule C=C(C(=O)c1c(OC)ccc(-c2cccs2)c1OC)c1ccc(OC(C)(C)C(=O)O)cc1 : ____
Solution: 138 °C (dec.)

Exercise: // lookup melting point for C=C(C(=O)c1c(OC)cccc1OC)c1ccccc1-c1cccs1
Solution: 70 to 73 °C

Exercise: What value of melting point has been recorded for this entry: C=C(C(=O)c1ccc(C(=O)NCCN2CCOCC2)cc1)c1cc(OC)c(OC)c(-c2cccs2)c1
Solution: 84 to 87 °C

Exercise: What does the record list as melting point for C=C(C(=O)c1c(OC)ccc(-c2cccs2)c1OC)c1c(F)cccc1C(F)(F)F ?
Solution: 76 to 78 °C

Exercise: Request the reported melting point associated with C=C(C(=O)c1ccc(C(=O)O)cc1)c1cc(-c2cccn2C(=O)OC(C)(C)C)ccc1OC
Solution: 90 °C (dec.)

Exercise: Look up melting point for this molecule: C=C(C(=O)c1cccc(C(=O)O)c1)c1cc(-c2cccs2)ccc1OC
Solution: 186 to 188 °C

###

The entries below are paired with their reported melting point.

[
  {
    "MOLECULE": "C=C(C(=O)c1ccc(C(C)(C)C)cc1)c1cc(-c2cccs2)ccc1OC [Example 57]",
    "melting point": "130 to 132 °C"
  },
  {
    "MOLECULE": "C=C(C(=O)c1ccc(F)cc1)c1cc(-c2cccs2)ccc1OC [Example 13]",
    "melting point": "116 to 121 °C"
  }
]

Shift focus to the following entry.
Exercise: Fill blank: measured melting point of the molecule C=C(C(=O)c1ccc(C(=O)N2CCC(O)CC2)cc1)c1cc(-c2cccs2)ccc1OC [Example 11] is ____.
Solution: 197 to 199 °C

###

In this section we review reported melting point values for a set of compounds.

Here's what some known entries look like.
[
  {
    "COMPOUND SMILES": "C=C(C(=O)c1c(C)cccc1Cl)c1ccc(C(=O)O)cc1-c1cccs1",
    "RESULT": "88 °C (dec.)"
  },
  {
    "COMPOUND SMILES": "C=C(C(=O)c1ccc(N2CCCC2)cc1)c1cc(-c2cccs2)ccc1OC",
    "RESULT": "187 to 190 °C"
  },
  {
    "COMPOUND SMILES": "C=C(C(=O)c1ccc(C(=O)O)cc1)c1cc(OC)c(OC)c(-c2cccs2)c1",
    "RESULT": "156 to 157 °C"
  },
  {
    "COMPOUND SMILES": "C=C(C(=O)c1c(OC)ccc(-c2cccs2)c1OC)c1ccc(S(=O)(=O)N(C)CC(=O)O)cc1",
    "RESULT": "164 to 166 °C"
  },
  {
    "COMPOUND SMILES": "C=C(C(=O)c1ccc(OC)c(-c2cccs2)c1)c1ccc(C(=O)O)cc1",
    "RESULT": "204 to 205 °C"
  },
  {
    "COMPOUND SMILES": "C=C(C(=O)c1ccc(C(=O)O)cc1)c1cc(-c2cccs2)c(OC)cc1OC",
    "RESULT": "196 to 198 °C"
  },
  {
    "COMPOUND SMILES": "C=C(C(=O)c1ccc(C(=O)O)cc1)c1cc(-c2ccsc2)ccc1OC",
    "RESULT": "192 to 194 °C"
  },
  {
    "COMPOUND SMILES": "C=C(C(=O)c1ccc(NC(=O)C(C)C)cc1)c1cc(-c2cccs2)ccc1OC",
    "RESULT": "155 to 158 °C"
  },
  {
    "COMPOUND SMILES": "C=C(C(=O)c1ccc(C(=O)O)cc1)c1cc(-c2cnc3ccccc3c2)ccc1OC",
    "RESULT": "232 °C (dec.)"
  },
  {
    "COMPOUND SMILES": "C=C(C(=O)c1c(OC)cccc1OC)c1ccc(OC(C)(C)C(=O)O)c(-c2cccs2)c1",
    "RESULT": "56.5 °C (dec.)"
  }
]

Exercise: Quick one: melting point of C=C(C(=O)c1ccc(Nc2ncccc2C(=O)O)cc1)c1cc(-c2cccs2)ccc1OC ?
Solution: 234 °C (dec.)

Exercise: Which melting point is listed for C=C(C(=O)c1ccc(NC(=O)c2cccn2C)cc1)c1cc(-c2cccs2)ccc1OC ?
Solution: 165 to 168 °C
